Target: F508delCFTR (Homo sapiens, UniProt P13569, DEL508-508)
Construct: expressed in transfected cells; host or cells: CFBE41o- human lung-derived epithelial cells (CFBE4lo-F508delCFTR-HRP), doxycycline-inducible
Sequence (P13569 with tags, fused parts or gaps DEL508-508): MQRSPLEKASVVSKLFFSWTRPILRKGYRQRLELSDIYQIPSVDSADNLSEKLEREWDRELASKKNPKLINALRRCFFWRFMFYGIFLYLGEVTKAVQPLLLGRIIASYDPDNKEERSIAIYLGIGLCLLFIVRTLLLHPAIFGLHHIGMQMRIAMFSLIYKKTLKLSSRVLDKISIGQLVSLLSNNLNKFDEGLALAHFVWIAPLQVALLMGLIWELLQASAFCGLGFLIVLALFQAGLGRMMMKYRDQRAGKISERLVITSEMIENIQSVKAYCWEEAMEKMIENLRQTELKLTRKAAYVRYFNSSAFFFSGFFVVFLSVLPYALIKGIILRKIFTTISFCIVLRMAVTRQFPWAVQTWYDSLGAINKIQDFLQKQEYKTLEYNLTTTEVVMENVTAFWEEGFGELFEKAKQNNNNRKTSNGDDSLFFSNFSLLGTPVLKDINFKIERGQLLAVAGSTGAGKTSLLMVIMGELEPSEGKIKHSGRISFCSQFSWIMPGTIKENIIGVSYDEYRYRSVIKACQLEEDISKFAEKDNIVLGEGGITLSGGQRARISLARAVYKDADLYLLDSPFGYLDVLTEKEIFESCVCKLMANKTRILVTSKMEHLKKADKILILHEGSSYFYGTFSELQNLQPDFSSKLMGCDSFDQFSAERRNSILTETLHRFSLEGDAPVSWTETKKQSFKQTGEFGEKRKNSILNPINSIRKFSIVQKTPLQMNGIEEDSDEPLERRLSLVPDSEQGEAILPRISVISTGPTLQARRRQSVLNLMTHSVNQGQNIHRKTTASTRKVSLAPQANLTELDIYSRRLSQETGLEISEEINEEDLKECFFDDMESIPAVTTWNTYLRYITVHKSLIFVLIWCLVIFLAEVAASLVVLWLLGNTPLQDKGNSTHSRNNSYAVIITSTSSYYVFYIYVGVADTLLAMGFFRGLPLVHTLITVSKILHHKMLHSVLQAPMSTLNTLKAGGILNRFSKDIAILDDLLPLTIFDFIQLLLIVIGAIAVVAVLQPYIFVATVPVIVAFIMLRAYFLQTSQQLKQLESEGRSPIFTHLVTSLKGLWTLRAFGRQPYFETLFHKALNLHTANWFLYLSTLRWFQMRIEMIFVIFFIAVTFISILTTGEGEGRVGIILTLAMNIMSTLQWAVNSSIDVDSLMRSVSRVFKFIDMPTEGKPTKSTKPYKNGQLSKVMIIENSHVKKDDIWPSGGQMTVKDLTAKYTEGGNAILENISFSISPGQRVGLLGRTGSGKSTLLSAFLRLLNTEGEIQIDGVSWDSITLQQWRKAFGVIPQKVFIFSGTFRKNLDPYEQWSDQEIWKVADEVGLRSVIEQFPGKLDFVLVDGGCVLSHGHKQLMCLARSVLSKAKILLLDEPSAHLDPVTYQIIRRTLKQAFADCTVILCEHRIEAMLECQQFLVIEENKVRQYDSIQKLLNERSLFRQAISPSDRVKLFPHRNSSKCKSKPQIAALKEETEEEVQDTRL
Test: Cell Surface Expression-Horse Radish Peroxidase (CSE-HRP) Assay
Format: cell-based
Conditions: test compound without co-corrector; read-out: EC50 (without co-corrector)
Procedure: Cell Surface Expression-Horse Radish Peroxidase (CSE-HRP) Assay The development was achieved by expressing the F508delCFTR mutation along with a horseradish peroxidase (HRP) in the fourth exofacial loop, and then measuring the HRP activity using luminescence readout from these cells, CFBE4lo-F508delCFTR-HRP, that were incubated overnight with the test corrector compounds, either without or with the co-corrector. […] The raw counts from the experiment were analyzed using Accelrys® Assay Explorer v3.3. […]
This listing pairs molecules with measured EC50.
measurement label: EC50

molecule="CC(C)(C)[C@H]1[C@H](NCC2(c3ccccc3Cl)CCOCC2)[C@H](c2ccccc2)N(C(=O)C2CCCCC2)[C@@H]1C(=O)O [Example I-219]" result="1 to 10 µM"
molecule="COc1ccc(C(F)(F)F)cc1CN[C@H]1[C@H](C(C)(C)C)[C@@H](C(=O)O)N(C(=O)C2(S(C)(=O)=O)CC2)[C@H]1c1ccccc1 [III-137]" result="1 to 10 µM"
molecule="COc1cc2c(cc1CN[C@H]1[C@H](C(C)(C)C)[C@@H](C(=O)O)N(C(=O)OC(C)C)[C@H]1c1cccnc1N(C)C)CCC2 [II-563]" result="1 to 10 µM"
molecule="CN(C)c1ncc(C(F)(F)F)cc1CN[C@@H]1[C@@H](C(C)(C)C)[C@H](C(=O)O)N(C(=O)C2CCCCC2)[C@@H]1c1ccccc1 (racemic) [III-36]" result="> 10 µM"
molecule="COc1ccc(C(C)(C)C)cc1CN[C@H]1[C@H](C(C)(C)C)[C@@H](C(=O)O)N(C(=O)C(C)Oc2cccc(Cl)c2)[C@H]1c1ccccc1 (stereo partly drawn) [II-330]" result="1 to 10 µM"
molecule="COc1ccc(C(F)(F)F)cc1CN[C@H]1[C@H](C(C)(C)C)[C@@H](C(=O)O)N(C(=O)OC(C)C)[C@H]1c1ccccc1 [II-553]" result="1 to 10 µM"
molecule="COc1ccc(C(C)(C)C)cc1CN[C@H]1[C@H](C(C)(C)C)[C@@H](C(=O)O)N(C(=O)C2CCc3cc(F)ccc3O2)[C@H]1c1ccccc1 (stereo partly drawn) [II-320]" result="1 to 10 µM"
molecule="COc1ncc(C2CCCCC2)cc1CN[C@H]1[C@H](C(C)(C)C)[C@@H](C(=O)O)N(C(=O)C2CCCCC2)[C@H]1c1ccccc1 [Example I-72]" result="< 1 µM"
molecule="COc1ccc(C(C)(C)C)cc1CN[C@H]1[C@H](C(C)(C)C)[C@@H](C(=O)O)N(C(=O)C2CCCS2(=O)=O)[C@H]1c1ccccc1 (stereo partly drawn) [Example I-192]" result="1 to 10 µM"
molecule="COc1ccc(C(C)(C)C)cc1CN[C@H]1[C@H](C(C)(C)C)[C@@H](C(=O)O)N(C(=O)c2cccnc2)[C@H]1c1ccccc1 [Example I-64]" result="1 to 10 µM"
molecule="COc1ccc(C(F)(F)F)cc1CN[C@@H]1[C@@H](C(C)(C)C)[C@@H](C(=O)O)N(C(=O)C2CCCCC2)[C@H]1c1ccccc1 [II-413]" result="1 to 10 µM"
molecule="COc1ccc(C(F)(F)F)cc1CN[C@H]1[C@H](C(C)(C)C)[C@@H](C(=O)O)N(C(=O)[C@@H](OC)c2ccccc2)[C@H]1c1ccccc1 [Example I-34]" result="1 to 10 µM"

Where these numbers come from: patent US20180099931A1
